target: hM4 muscarinic receptor (Homo sapiens); test: cell-based
Sequence (P08173 whole entry): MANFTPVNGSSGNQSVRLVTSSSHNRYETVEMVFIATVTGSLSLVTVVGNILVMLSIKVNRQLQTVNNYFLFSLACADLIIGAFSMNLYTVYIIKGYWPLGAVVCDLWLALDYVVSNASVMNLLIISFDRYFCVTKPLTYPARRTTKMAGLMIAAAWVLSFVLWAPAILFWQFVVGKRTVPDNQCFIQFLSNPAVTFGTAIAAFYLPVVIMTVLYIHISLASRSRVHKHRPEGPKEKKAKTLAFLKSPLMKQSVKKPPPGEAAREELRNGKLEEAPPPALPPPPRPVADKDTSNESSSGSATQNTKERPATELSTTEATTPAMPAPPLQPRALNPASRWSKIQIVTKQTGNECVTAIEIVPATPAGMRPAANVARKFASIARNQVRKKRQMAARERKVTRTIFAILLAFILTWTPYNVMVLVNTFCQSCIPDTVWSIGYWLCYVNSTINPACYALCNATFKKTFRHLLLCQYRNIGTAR
ENDPOINT_NAME: pEC50
Units for pEC50: none; it is -log10 of a concentration expressed in mol/L.

Give pEC50 for O=C1CCCN1CC#CCN1CCCC1 [oxotremorine]
7.17

* * *

molecular target: hM1 muscarinic receptor (Homo sapiens, UniProt P11229); assay: cell-based
Sequence (P11229 whole entry): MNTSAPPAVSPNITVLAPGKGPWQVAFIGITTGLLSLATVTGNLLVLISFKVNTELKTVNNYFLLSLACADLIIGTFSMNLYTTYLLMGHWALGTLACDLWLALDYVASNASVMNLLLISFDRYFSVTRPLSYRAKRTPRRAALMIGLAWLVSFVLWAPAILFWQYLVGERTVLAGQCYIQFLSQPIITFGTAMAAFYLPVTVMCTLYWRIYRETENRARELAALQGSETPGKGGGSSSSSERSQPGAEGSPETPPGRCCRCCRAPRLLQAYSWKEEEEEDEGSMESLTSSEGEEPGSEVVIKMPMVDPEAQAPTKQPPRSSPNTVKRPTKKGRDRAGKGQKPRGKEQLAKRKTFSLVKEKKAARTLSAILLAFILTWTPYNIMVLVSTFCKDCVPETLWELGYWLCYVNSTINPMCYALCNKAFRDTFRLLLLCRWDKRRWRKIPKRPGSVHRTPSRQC
ENDPOINT_NAME: pEC50
Quick note: pEC50 means taking -log10 of the concentration in moles per liter.

Determine its reported pEC50: O=C1CCCN1CC#CCN1CCCC1
7.33
